- Test system: diffuse histiocytic lymphoma cells SU-DHL-2
- assay comment: Cancer cell growth, Cell Titer-Glo
- Format: cell-based
- recorded conditions: Homo sapiens; SU-DHL-2, 72 hrs; read-out: Half inhibitory concentration IC50
pIC50: −log10 of the molar value.
assay metric: pIC50

1. C=CC(=O)Nc1cc(-n2c(=O)ccc3cnc4ccc(-n5cccn5)cc4c32)ccc1C    5.30

###

# pIC50 annotations
- Tested on: colon cancer cells HCT116
- assay comment: Cancer cell growth, Cell Titer-Glo
- Type: cell-based
- recorded conditions: Homo sapiens, HCT-116; HCT116, 72 hrs; read-out: Half inhibitory concentration IC50
pIC50: −log10 of the molar value.
assay metric: pIC50

1) C=CC(=O)Nc1cc(-n2c(=O)ccc3cnc4ccc(-n5cccn5)cc4c32)ccc1C [Compound 1]    < 5.00
2) CCC(=O)Nc1cc(-n2c(=O)ccc3cnc4ccc(-n5cccn5)cc4c32)ccc1C [Compound 19]    < 5.00

###

- Tested on: B-cell lymphoma cells U2932
- assay comment: Cancer cell growth, Cell Titer-Glo
- Format: cell-based
- recorded conditions: Homo sapiens; U2932, 72 hrs; read-out: Half inhibitory concentration IC50
assay metric: IC50 (µM)

1. C=CC(=O)Nc1cc(-n2c(=O)ccc3cnc4ccc(-n5cccn5)cc4c32)ccc1C    1.15

###

- Test system: acute promyelocytic leukemia cell line NB-4(Lu+)
- assay comment: Cancer cell growth, Cell Titer-Glo
- Format: cell-based
- recorded conditions: 72 hrs, read-out: Half inhibitory concentration IC50
pIC50: −log10 of the molar value.
assay metric: pIC50

1. C=CC(=O)Nc1cc(-n2c(=O)ccc3cnc4ccc(-n5cccn5)cc4c32)ccc1C [Compound 1]    5.43

###

- test target: EGFR (WT) (Homo sapiens, UniProt P00533)
- Construct: The intracellular segment (699-1068) region of EGFR was cloned into the insect expression vector pAcG2T; GST
- Sequence (P00533 699-1068): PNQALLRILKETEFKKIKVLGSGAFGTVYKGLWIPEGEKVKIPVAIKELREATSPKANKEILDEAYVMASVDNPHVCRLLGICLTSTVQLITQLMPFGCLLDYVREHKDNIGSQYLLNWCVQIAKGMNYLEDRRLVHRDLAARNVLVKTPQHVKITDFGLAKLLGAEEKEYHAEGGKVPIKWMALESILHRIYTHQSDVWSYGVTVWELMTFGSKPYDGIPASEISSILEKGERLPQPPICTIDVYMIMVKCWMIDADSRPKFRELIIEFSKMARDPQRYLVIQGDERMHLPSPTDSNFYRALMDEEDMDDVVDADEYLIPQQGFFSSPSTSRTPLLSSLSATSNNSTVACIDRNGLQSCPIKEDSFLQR
- assay comment: In vitro enzymatic activity (ADP-Glo)
- recorded conditions: 4 hrs preincubation, 10 μM ATP
assay metric: IC50 (nM)

1. C=CC(=O)Nc1cc(-n2c(=O)ccc3cnc4ccc(-n5cccn5)cc4c32)ccc1C [Compound 1]    2450

###

- test target: BTK (Homo sapiens, UniProt Q06187)
pIC50: −log10 of the molar value.
assay metric: pIC50

1. C=CC(=O)Nc1cc(-n2c(=O)ccc3cnc4ccc(-n5cccn5)cc4c32)ccc1C [Compound 1]    7.12

###

- test target: tyrosine Y223 on Btk (Homo sapiens, UniProt Q06187)
- Sequence (Q06187 whole entry): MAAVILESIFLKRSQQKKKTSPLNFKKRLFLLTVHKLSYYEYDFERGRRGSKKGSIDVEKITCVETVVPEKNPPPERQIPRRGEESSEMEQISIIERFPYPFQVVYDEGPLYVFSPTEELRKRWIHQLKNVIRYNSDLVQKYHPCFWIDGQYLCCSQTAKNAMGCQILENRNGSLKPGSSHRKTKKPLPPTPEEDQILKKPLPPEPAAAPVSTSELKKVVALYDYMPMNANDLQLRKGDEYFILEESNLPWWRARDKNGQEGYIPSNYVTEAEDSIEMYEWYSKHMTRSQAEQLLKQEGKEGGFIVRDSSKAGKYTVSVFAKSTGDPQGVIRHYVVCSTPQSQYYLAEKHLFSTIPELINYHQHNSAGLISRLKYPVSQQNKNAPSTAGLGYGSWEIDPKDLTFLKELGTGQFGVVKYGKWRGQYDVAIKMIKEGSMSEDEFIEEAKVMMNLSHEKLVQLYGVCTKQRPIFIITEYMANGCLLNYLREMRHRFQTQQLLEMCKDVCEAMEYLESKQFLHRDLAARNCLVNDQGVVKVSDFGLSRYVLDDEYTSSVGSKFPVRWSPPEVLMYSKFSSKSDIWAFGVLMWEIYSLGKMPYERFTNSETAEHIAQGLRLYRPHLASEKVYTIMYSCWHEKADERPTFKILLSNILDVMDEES
- assay comment: Phosphorylation of BTK Y223 in anti-IgM stimulated Ramos cells
- recorded conditions: 4 hrs treatment, anti-IgM 10 min, read-out: EC50, inhibition of phosphorylation of tyrosine Y223 on Btk
pEC50: −log10 of the molar value.
assay metric: pEC50

1. C=CC(=O)Nc1cc(-n2c(=O)ccc3cnc4ccc(-n5cccn5)cc4c32)ccc1C [Compound 1]    6.66

###

IC50 reference
- Test system: diffuse large B-cell lymphoma cells OCI-LY10
- assay comment: Cancer cell growth, Cell Titer-Glo
- Type: cell-based
- recorded conditions: Homo sapiens; OCI-LY10, 72 hrs; read-out: Half inhibitory concentration IC50
assay metric: IC50

1) C=CC(=O)Nc1cc(-n2c(=O)ccc3cnc4ccc(-n5cccn5)cc4c32)ccc1C [Compound 1]    > 10 µM
2) CCC(=O)Nc1cc(-n2c(=O)ccc3cnc4ccc(-n5cccn5)cc4c32)ccc1C [Compound 19]    > 10 µM
